System: Aphis craccivoral
Experiment: Insecticidal activity against Aphis craccivoral by immersing (dipping aphids on bean sprout)
Format: in vivo
Conditions: 500 ppm; immersing (dipped 5 seconds); counted after 24 hours; 23° C.
Experimental: Test on the insecticidal activity of Compound Nos. 1-227 Aphis, which belongs to Homoptera and has a piercing-sucking mouthpart, is a common insect for agricultural plant. Aphis craccivoral was tested by the way of immersing. Test method: exactly weighed various samples were independently added to N,N-dimethylformamide to form a 10 g/L stock solution. […] The number of killed aphis was counted after 24 hours to calculate the mortality.
measure: mortality (%) (500 ppm) Aphis
Write the number in % without appending the unit.

Answered examples (5):
[
  {
    "compound": "CC(C)OC1CCC([N+](=O)[O-])=C2N(Cc3cnc(Cl)s3)CCN21 (racemic) [Compound 29]",
    "system_under_test": "Aphis craccivoral",
    "measured_number": 100
  },
  {
    "compound": "O=C(OC1CCC([N+](=O)[O-])=C2N(Cc3ccc(Cl)nc3)CCN21)c1cc(F)c(F)c(F)c1F (stereo not shown) [Compound 128]",
    "system_under_test": "Aphis craccivoral",
    "measured_number": 0
  },
  {
    "compound": "CCC(=O)OC1CCC([N+](=O)[O-])=C2N(Cc3ccc(Cl)nc3)CCN21 (stereo not shown) [Compound 114]",
    "system_under_test": "Aphis craccivoral",
    "measured_number": 56
  },
  {
    "compound": "CC(C)(C)SC1CCC([N+](=O)[O-])=C2N(Cc3ccc(Cl)nc3)CCN21 (stereo not shown) [Compound 142]",
    "system_under_test": "Aphis craccivoral",
    "measured_number": 67
  },
  {
    "compound": "O=C(OC1CCC([N+](=O)[O-])=C2N(Cc3ccc(Cl)nc3)CCN21)c1ccc(Cl)cc1 (stereo not shown) [Compound 124]",
    "system_under_test": "Aphis craccivoral",
    "measured_number": 22
  }
]

Prompt: Can you look up the measured mortality (%) (500 ppm) Aphis of O=C(OC1CCC([N+](=O)[O-])=C2N(Cc3ccc(Cl)nc3)CCN21)C(Cl)(Cl)Cl (stereo not shown) [Compound 115] for me?
Response: 0

Prompt: Field request: mortality (%) (500 ppm) Aphis | item: O=[N+]([O-])C1=C2N(CC3CCOC3)CCN2C(OCCCl)CC1 (stereo not shown) [Compound 48]
Response: 3

Prompt: Suppose we examine the compound O=C(OC1CCC([N+](=O)[O-])=C2N(Cc3cnc(Cl)s3)CCN21)c1ccccc1 (stereo not shown) [Compound 161] ; what mortality (%) (500 ppm) Aphis value has been reported?
Response: 3

---

Test system: Nilaparvata lugens
Assay: Insecticidal activity against Nilaparvata lugens (planthopper) by spraying
Assay type: in vivo
Conditions: 500 ppm; spraying 2 ml; counted after 24 hours
measure: mortality (%) (500 ppm) Nilaparvata lugens
Give the number; % is assumed, so skip it.

Previously resolved entries follow.
[
  {
    "compound": "CC(C)(C)COC1CCC([N+](=O)[O-])=C2N(Cc3ccc(Cl)nc3)CCN21 (racemic)",
    "system_under_test": "Nilaparvata lugens",
    "units_text": "%",
    "measured_number": 100
  },
  {
    "compound": "C#CCOC1CCC([N+](=O)[O-])=C2N(Cc3cnc(Cl)s3)CCN21 (stereo not drawn)",
    "system_under_test": "Nilaparvata lugens",
    "units_text": "%",
    "measured_number": 100
  },
  {
    "compound": "O=[N+]([O-])C1=C2N(Cc3ccc(Cl)nc3)CCN2C(OS(=O)(=O)C(F)(F)F)CC1 (stereo not drawn)",
    "system_under_test": "Nilaparvata lugens",
    "units_text": "%",
    "measured_number": 100
  },
  {
    "compound": "CC(C)(C)OC1CCC([N+](=O)[O-])=C2N(Cc3ccc(Cl)nc3)CCCN21 (stereo not drawn)",
    "system_under_test": "Nilaparvata lugens",
    "units_text": "%",
    "measured_number": 34
  },
  {
    "compound": "O=[N+]([O-])C1=C2N(CC3CCOC3)CCN2C(OCC(F)(F)F)CC1 (stereo not drawn)",
    "system_under_test": "Nilaparvata lugens",
    "units_text": "%",
    "measured_number": 32
  },
  {
    "compound": "CCCCOC1CCC([N+](=O)[O-])=C2N(CC3CCOC3)CCCN21 (stereo not drawn)",
    "system_under_test": "Nilaparvata lugens",
    "units_text": "%",
    "measured_number": 0
  },
  {
    "compound": "CCOCCSC1CCC([N+](=O)[O-])=C2N(Cc3ccc(Cl)nc3)CCN21 (stereo not drawn)",
    "system_under_test": "Nilaparvata lugens",
    "units_text": "%",
    "measured_number": 100
  },
  {
    "compound": "O=[N+]([O-])C1=C2N(Cc3ccc(Cl)nc3)CCN2C(Oc2ccccc2)CC1 (stereo not drawn)",
    "system_under_test": "Nilaparvata lugens",
    "units_text": "%",
    "measured_number": 75
  },
  {
    "compound": "CC(C)(C)CSC1CCC([N+](=O)[O-])=C2N(Cc3ccc(Cl)nc3)CCN21 (stereo not drawn)",
    "system_under_test": "Nilaparvata lugens",
    "units_text": "%",
    "measured_number": 99
  },
  {
    "compound": "O=[N+]([O-])C1=C2N(CC3CCOC3)CCCN2C(OCCCl)CC1 (stereo not drawn)",
    "system_under_test": "Nilaparvata lugens",
    "units_text": "%",
    "measured_number": 89
  }
]

Prompt: Which mortality (%) (500 ppm) Nilaparvata lugens is reported for this compound? CCSC1CCC([N+](=O)[O-])=C2N(Cc3ccc(Cl)nc3)CCN21 (stereo not drawn)
Response: 100

Prompt: // lookup mortality (%) (500 ppm) Nilaparvata lugens for COC1CCC([N+](=O)[O-])=C2N(Cc3cnc(Cl)s3)CCN21 (racemic)
Response: 100

Prompt: Entry under review: O=C(OC1CCC([N+](=O)[O-])=C2N(Cc3cnc(Cl)s3)CCN21)C(Cl)(Cl)Cl (stereo not drawn) . Reported mortality (%) (500 ppm) Nilaparvata lugens?
Response: 100

Prompt: Recorded mortality (%) (500 ppm) Nilaparvata lugens of CCCC(C)OC1CCC([N+](=O)[O-])=C2N(Cc3cnc(Cl)s3)CCN21 (mixture of isomers) , please.
Response: 67

Prompt: Recorded mortality (%) (500 ppm) Nilaparvata lugens for CCOC1CCC([N+](=O)[O-])=C2N(Cc3cnc(Cl)s3)CCCN21 (stereo not drawn) , please?
Response: 100

Prompt: Any idea what its mortality (%) (500 ppm) Nilaparvata lugens is? The compound is C=CCOC1CCC([N+](=O)[O-])=C2N(Cc3cnc(Cl)s3)CCN21 (racemic)
Response: 100
